Assay Summary: in vitro
Format: cell-based
Test Parameters: mouse
Ends that are not written are not given here.
Property: IC50 at 24 h; scope: individual substances

| Substance | IC50 at 24 h |
| --- | --- |
| H-NKVKEWIKYLKSLFK-OH [YK5, NKVKE WIKYL KSLFK] | > 100 µM |
| NKVKEWWKWLKKL [YK11, NKVKE WWKWL KKL] | > 100 µM |
| NKVKEWIKYLKSKFK [YK8, NKVKE WIKYL KSKFK] | > 100 µM |

* * *

Assay Summary: in vitro
Format: cell-based
Test Parameters: Chinese hamster
Ends that are not written are not given here.

| Substance | Quantity Unit | IC50 at 24 h |
| --- | --- | --- |
| NKVKEWWKWLKKL [YK11, NKVKE WWKWL KKL] | µM | 86.8 |
| NKVKEWIKYLKSLFS [YK3, NKVKE WIKYL KSLFS] | µM | 56.2 |
| H-NKVKEWIKYLKSLFK-OH [YK5, NKVKE WIKYL KSLFK] | µM | 57 |
| NKVKEWIKYLKSKFK [YK8, NKVKE WIKYL KSKFK] | µM | 71.9 |
